test: Cu^2+ chelation assay (murexide competition); conditions: 16.80 µg/mL
Rule: yes for Cupric ions Chelation Capacity (%) not less than 40%, no for anything less.

Task: Record CCn1c(SCC(=O)NN=C(C)c2ccc(O)cc2O)nc2ccccc2c1=O ; criterion: Cupric ions Chelation Capacity (%) no lower than 40%. Met?
Result: no

Task: Check O=C([O-])CN(CCN(CC(=O)[O-])CC(=O)O)CC(=O)O.[Na+].[Na+] [EDTA-Na2, reference compound] too.
Result: yes

Task: Check CCCCn1c(SCC(=O)NN=Cc2ccc(O)c(O)c2O)nc2ccccc2c1=O too.
Result: yes

Task: Check CCCCn1c(SCC(=O)NN=C(C)c2ccc(O)cc2O)nc2ccccc2c1=O too.
Result: no

Task: Check CCn1c(SCC(=O)NN=Cc2ccc(O)c(O)c2O)nc2ccccc2c1=O too.
Result: no

Task: Check CC(=NNC(=O)CSc1nc2ccccc2c(=O)n1Cc1ccccc1)c1ccc(O)cc1O too.
Result: no

Task: Check C=CCn1c(SCC(=O)NN=C(C)c2ccc(O)cc2O)nc2ccccc2c1=O too.
Result: no
